Test system: MKNK1
setup-conditions: concentration: 1 μM, replicates: in singlicate; n = 1;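 also: KINOMEscan kinase panel screen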
I'd be grateful if you could share measured %Inh for these entries.
Give bare numbers, in %.

Field: example entries. Status: answers known.
| compound | %Inh, % |
| --- | --- |
| Cc1ccc(NC(=O)c2ccnc(N3CCN(C)CC3)c2)cc1-c1ccc(C(=O)NCC2CC2)cc1 [GW775604] | 2 |
| N#Cc1ccc(-c2cc(-c3c[nH]nc3-c3ccccn3)ccn2)cc1 [GW693028] | 7 |

// input: 2 compounds below; output: %Inh for each
1. Cc1cn2c(=O)cc(N3CCOCC3)nc2n1Cc1cccc(Cl)c1Cl [GSK2334006]
2. Cc1cccc(Cn2ccn3c(=O)cc(N4CCOCC4)nc23)c1 [GSK2297542]

1: 2; 2: 0

Hi! Can you tell me %Inh for each of these compounds?
1. Cc1ccc(C(=O)NCC(N)=O)cc1-n1c(C)cc(OCc2ccc(F)cc2F)c(Br)c1=O
2. COc1cc2ncn(-c3cc(OCc4sccc4Cl)c(C(N)=O)s3)c2cc1OC [GSK448459]
3. Cl.Oc1cccc(Nc2ccnc3cc(-c4ccncc4)ccc23)c1 [GW494601]
4. CCc1ccnc(/C=C/c2n[nH]c3cc(Sc4ccccc4C(=O)NC)ccc23)c1
5. CC(C)(C)n1cnc2c(N)ncnc21 [SKF-97359]

1: 0; 2: 0; 3: 0; 4: 0; 5: 54

* * *

For each of the compounds below, state its %Inh.
Test system: CDKL1
setup-conditions: concentration: 1 μM, replicates: in singlicate; n = 1
Numbers only, in %.

| line-notation | %Inh (%) |
| --- | --- |
| CN1c2ccc(CNc3ccc(F)cc3)cc2-c2c(cnn2C)S1(=O)=O | 9 |
| Cc1ccc(NC(=O)c2ccnc(N3CCN(C)CC3)c2)cc1-c1ccc(C(=O)NCC2CC2)cc1 | 0 |
| COc1ccc(COc2cc(-n3cnc4ccccc43)sc2C(N)=O)cc1 | 7 |
| Nc1nc(-c2ccc3c(N)n[nH]c3c2)cc(N2CCCC2)n1 | 72 |

For the next question, use this compound.
compound COc1cc2c(cc1OC[C@@H](O)CO)ncc1c3ccc(C#N)cc3[nH]c21 , %Inh observed: 12

* * *

System: CSNK1G2
setup-conditions: concentration: 1 μM, replicates: in singlicate; n = 1
Provide the recorded %Inh for the entries that follow.
Numbers only, in %.

| compound | unit-spec | value-reported |
| --- | --- | --- |
| O=c1cc(N2CCOCC2)nc2n(Cc3cccc(C(F)(F)F)c3)ccn12 | % | 0 |

Please give %Inh, item by item, for the list that follows.
1. Nc1nc(-c2ccc3c(N)n[nH]c3c2)cc(N2CCCC2)n1
2. Cc1cccc(-c2nc(-c3ccc(S(C)(=O)=O)cc3)sc2-c2ccncc2)c1
3. N#Cc1c(N2CCOCC2)sc(-c2ccn[nH]2)c1-c1ccc(Cl)cc1
4. O=C(c1ccc(-c2cc(-c3c[nH]nc3-c3ccccn3)ccn2)cc1)N1CCOCC1
5. O=C(NOCC1CC1)c1ccc(F)c(F)c1Nc1ccc(I)cc1Cl
6. O=C(Nc1cccc(-c2nn3ncccc3c2-c2ccnc(Nc3cccc(C(F)(F)F)c3)n2)c1)c1c(F)cccc1F
7. CN1c2ccc(CNc3ccc(F)cc3)cc2-c2c(cnn2C)S1(=O)=O
8. O=C(NCCNc1ccnc(Nc2ccc(F)cc2)n1)c1cc2ccccc2s1

1. 0
2. 20
3. 0
4. 0
5. 0
6. 0
7. 0
8. 0

For each of the compounds below, note its %Inh.
1. Cc1c(Cn2c(C)nn3c(=O)cc(N4CCOC(C)C4)nc23)cccc1C(F)(F)F (stereo not drawn)
2. O=C(Nc1n[nH]c2cc(-c3cccc(F)c3)ccc12)C1CC1
3. CCc1nc(-c2cccc(C)c2)c(-c2ccnc(NCc3ccccc3)c2)s1
4. CNc1ncnc2[nH]ncc12
5. Cn1ccc2ncnc(Oc3ccc(NC(=O)Nc4ccncc4)c(Cl)c3)c21
6. COc1ccc(Nc2nccc(N3CCC(NC(=O)Nc4cccc(C(C)=O)c4)C3)n2)cc1 (stereo not drawn)

0
0
0
0
0
0

// batch mode: one %Inh value per listed entry
1. Cl.Oc1cccc(Nc2ccnc3cc(-c4ccncc4)ccc23)c1
2. COCCNC(=O)c1ccc(-c2cc(C(=O)NC3CC3)cc(F)c2C)cc1
3. O=C(NCCNc1ccnc(Nc2ccc(F)cc2)n1)Nc1ccccc1F
4. Cc1nnc(-c2ccc(C)c(-c3ccc(C(=O)Nc4ccc(NS(C)(=O)=O)cc4)cc3)c2)o1
5. CN(C1=C(c2ccccc2)C(=O)NC1=O)c1ccccc1
6. COc1ccc(Nc2ncc(C#N)c(Nc3ccccc3C(N)=O)n2)cc1N1CCN(C)CC1.Cl
7. Cc1nnc(-c2ccc3ncc(-c4ccc(S(C)=O)cc4)n3c2)o1 (stereo not drawn)

1: 0; 2: 4; 3: 0; 4: 15; 5: 0; 6: 0; 7: 5

Give me %Inh for each of these compounds, listed below.
1. CSc1ccc(-c2cc3ncnc(SCC(=O)O)c3s2)cc1
2. NS(=O)(=O)c1cccc(-c2ccc3ncc(N4CCOCC4)nc3c2)c1
3. Cl.Nc1ncnc2occ(-c3ccc(NC(=O)Nc4cc(C(F)(F)F)ccc4F)cc3)c12
4. O=c1cc(N2CCOCC2)nc2n(Cc3cccc4ccccc34)ccn12

1. 0
2. 0
3. 0
4. 0

Below are some compounds; for each one, tell me its %Inh.
1. NS(=O)(=O)CCc1cccc(Nc2nccc(-c3c(-c4cccc(NC(=O)c5c(F)cccc5F)c4)nn4ccccc34)n2)c1
2. O=c1cc(N2CCOCC2)nc2n(Cc3cccc(F)c3)ccn12
3. CCc1ccnc(/C=C/c2n[nH]c3cc(Sc4ccccc4C(=O)NC)ccc23)c1
4. CN(C(=O)c1ccc(-c2cc(-c3c[nH]nc3-c3ccccn3)ccn2)cc1)C1CCOCC1
5. CN1c2ccc(NCc3ccc(F)cc3)cc2-c2c(cnn2C)S1(=O)=O
6. Fc1ccc(-c2ncn(CCCN3CCOCC3)c2-c2ccccn2)cc1
7. O=C(NCCCN1CCOCC1)c1cccc(Nc2nccc(Nc3ccc(Oc4ccccc4)cc3)n2)c1
8. Cc1ccc(C(=O)NCC(N)=O)cc1-n1c(C)cc(OCc2ccc(F)cc2F)c(Br)c1=O

5
1
0
0
0
0
0
10

I have 2 compounds here; please give me %Inh for each one.
1. COC(=O)Nc1nc2cc(Oc3ccc(NC(=O)Nc4cc(F)ccc4F)cc3)ccc2[nH]1.Cl
2. COc1ccc(COc2cc(-n3cnc4ccccc43)sc2C(N)=O)cc1

1. 0
2. 5

* * *

System: IKK-alpha
Construct: gene CHUK
setup-conditions: concentration: 1 μM, replicates: in singlicate; n = 1
Task for the reader: assign each of the following molecules its reported %Inh.
Give bare numbers, in %.

Field: example entries. Status: answers known.
| molecule | assay-system | value-reported |
| --- | --- | --- |
| Cc1nnc(-c2ccc3occ(-c4ccc(C(C)O)cc4)c3c2)o1 (centres unmarked) | IKK-alpha | 0 |
| O=C(NCCNc1ccnc(Nc2ccc(F)cc2)n1)c1cc2ccccc2s1 [GSK1379874] | IKK-alpha | 0 |
| CNc1ncnc2[nH]ncc12 [SKF-18355] | IKK-alpha | 0 |

Field: %Inh. Fill in for each record below.
1. O=c1cc(N2CCOCC2)nc2n(Cc3cccc(F)c3)ccn12 [GSK2297430]
2. CN(C(=O)c1ccc(-c2cc(-c3c[nH]nc3-c3ccccn3)ccn2)cc1)C1CCOCC1 [GW810083]
3. CCn1cnc2c(N)ncnc21 [GW345098]
4. Fc1ccc(-c2nn3c(OCC(F)(F)F)cccc3c2-c2ccncc2)cc1 [GW514784]

3
0
0
0

Please supply %Inh for each of the following items, keeping them in order.
1. COc1ccc(CNC(=O)NC2CCN(c3ccnc(Nc4ccc(OC)cc4)n3)C2)cc1 (centres unmarked) [GSK1379727]
2. O=C(NOCC1CC1)c1ccc(F)c(F)c1Nc1ccc(I)cc1Cl
3. [2H]C([2H])(c1cccc(C(F)(F)F)c1C)n1ccn2c(=O)nc(N3CCOCC3)cc12 [GSK2336394]
4. O=C1NC(=O)C(N2CCc3ccccc32)=C1c1cccc(Cl)c1 [SB-408010]

1: 20; 2: 46; 3: 10; 4: 0

* * *

Tested on: CDK4
setup-conditions: concentration: 1 μM, replicates: in singlicate; n = 1
# true (1) = %Inh below 2% (exclusive); false (0) = %Inh at/above 2%

| molecule | assay-system | class-assignment |
| --- | --- | --- |
| O=C(NOCC1CC1)c1ccc(F)c(F)c1Nc1ccc(I)cc1Cl | CDK4 | true (1) |

A record lists Cl.Oc1cccc(Nc2ccnc3cc(-c4ccncc4)ccc23)c1 [GW494601] . Is its %Inh below 2%?
false (0)

* * *

Test system: RSK4(Kin.Dom.2-C-terminal)
Construct: gene RPS6KA6
setup-conditions: concentration: 1 μM, replicates: in singlicate; n = 1
For each entry below, report its %Inh value.
Could you kindly put the unit after your number?

Some compounds with known %Inh results, for comparison:
| compound | %Inh |
| --- | --- |
| Nc1nc(-c2ccc3c(N)n[nH]c3c2)cc(N2CCCC2)n1 [GSK2227430] | 0% |
| O=c1cc(N2CCOCC2)nc2n(Cc3cccc4ccccc34)ccn12 [GSK2333389] | 8% |
| Cl.Nc1ncnc2occ(-c3ccc(NC(=O)Nc4cc(C(F)(F)F)ccc4F)cc3)c12 [SB-707548] | 39% |
| COc1cc2c(cc1OC[C@@H](O)CO)ncc1c3ccc(C#N)cc3[nH]c21 | 18% |
| COc1ccc(COc2cc(-n3cnc4ccccc43)sc2C(N)=O)cc1 [GSK1024304] | 23% |

Go through the items and report each one's %Inh.
1. COCCNC(=O)c1ccc(-c2cc(C(=O)NC3CC3)cc(F)c2C)cc1 [GW868318]
2. COc1ccc(S(=O)(=O)NC2CCN(c3cc(C)nc(Nc4cccc(C#N)c4)n3)CC2)cc1.O=C(O)C(F)(F)F [GSK1653539]
3. Cc1nnc(-c2ccc(C)c(-c3ccc(C(=O)Nc4ccc(NS(C)(=O)=O)cc4)cc3)c2)o1 [GW702865]
4. Cc1c2ccc(N(C)c3ccnc(Nc4cccc(S(N)(=O)=O)c4)n3)cc2nn1Cc1ccccc1.Cl.Cl [GW787226]

1. 0%
2. 21%
3. 0%
4. 0%

For each listed entry, give its %Inh.
1. CN1c2ccc(NCc3ccc(F)cc3)cc2-c2c(cnn2C)S1(=O)=O
2. Cc1cccc(-c2nc(Nc3ccc4ncsc4c3)c3ccccc3n2)n1 [GW867588]

1: 98.7%; 2: 8%

I have 3 compounds here; please give me %Inh for each one.
1. COc1cc(Nc2nccc(N3CCC(NC(=O)c4cccc(NC(C)=O)c4)C3)n2)cc(OC)c1OC (stereo not drawn) [GSK1379754]
2. Cn1cc(-c2ccc3c(c2)CCN3C(=O)Cc2ccccc2Cl)c2c(N)ncnc21 [GSK2608885]
3. Cc1c(Cn2c(C)nn3c(=O)cc(N4CCOC(C)C4)nc23)cccc1C(F)(F)F (stereo not drawn) [GSK2344444]

0%
18%
17%

Report %Inh for every entry below.
1. CC(C)Oc1ccc2c(-c3ccnc(Nc4ccc(N5CCN(C)CC5)cc4)n3)cnn2n1 [GW696155]
2. O=c1cc(N2CCOCC2)nc2n(Cc3cccc(F)c3)ccn12 [GSK2297430]
3. Cc1nnc(-c2ccc3occ(-c4ccc(C(C)O)cc4)c3c2)o1 (stereo not drawn)
4. c1ccc(-c2n[nH]cc2-c2ccnc3ccccc23)nc1 [GW271431]

["95.1%", "6%", "7%", "48%"]
